Hi there, I'd appreciate the recorded melting point for every entry that follows.

According to the records, this molecule CS(=O)(=O)N1CCS(=O)c2ccccc2C1 (stereo not given) displays melting point of 195 to 197 °C

molecule Cc1cc(C)c2c(n1)N(C(=O)Cl)c1ccccc1N(C)C2=O , melting point observed: 205 to 207 °C

The value of melting point measured for the molecule Brc1ccc(OCc2ccccn2)cc1/C=C/c1cc(/C=C/c2ccc3cc[nH]c3c2)[nH]n1 turned out to be 100 to 106 °C

The recorded melting point for O=C(Nc1ccc(C(=O)N2Cc3ccccc3Cc3ccccc32)cc1)c1ccccc1C(F)(F)F is 191 to 193 °C

Form: molecule = COc1ccc(Cl)cc1NC(=O)C1CCNCC1 ; melting point = 124 to 126 °C

molecule C#CC(C)(O)C1CCC2C3CC=C4CC(F)CCC4(C)C3CCC21C (stereo not given) , melting point observed: 213 to 214 °C

Entry Cc1ccc(S(=O)(=O)c2cn(C(=O)OC(C)(C)C)c3cc(-c4ccc(F)cc4)ccc23)cc1 , melting point reported as 135 °C

melting point recorded for this molecule, CC(=O)NCc1ccc2c(c1)N(C1CCN(CCCCc3ccc(F)cc3)CC1)CC2 , is 119 to 121 °C

The reported melting point of the molecule O=C(CCC(=O)N1CCC[C@H]1C(=O)O)c1ccc(Br)cc1 was 138 to 139 °C

Per the record, Nc1ccccc1NCCCN1CCC(n2c(=O)[nH]c3cc(Cl)ccc32)CC1 has melting point of 196 °C

Entry [N-]=[N+]=Nc1nc(N)c2ncn(COCCO)c2n1 — recorded melting point = 191 to 192 °C

The measured melting point associated with N#Cc1cccc(S(=O)(=O)N2c3ccccc3C[C@H]2C(=O)NCCc2ccccc2)c1 reads 50 °C

Recorded melting point (molecule CC(C)CS(=O)(=O)c1ccnc(OS(C)(=O)=O)c1 ): 75.5 to 76.5 °C

Input Cc1c(SCCCSc2nc3ccccc3[nH]2)ccnc1CSc1ccncc1 . Output melting point: 128 to 129 °C

Sure, the documented melting point for CCCc1nc2c(N)nc(C)c(C)c2n1CCCCN1CCCS1(=O)=O is 155 to 161 °C

Record CCOc1ccc(-c2ccc(Br)cc2)cc1 , field melting point: 139 °C

Looking up CC(=O)Oc1cc(S(=O)(=O)Oc2ccc(C(=O)c3c(Cc4ccc(Br)cc4)sc(C)c3C)cc2C2CCCC2)ccc1C(=O)O , I found its melting point recorded as 113 to 114 °C

# melting point of CCCCCN(CCC12CC3CC(CC(C3)C1)C2)C(=O)NCCc1ccc(O)cc1 = 96.3 to 99.4 °C

The recorded melting point for entry CCn1c(C)c(C(=O)c2ccc([N+](=O)[O-])cc2C(=O)O)c2ccccc21 equals 203 to 204 °C

The recorded melting point for entry Cc1ccc(S(=O)(=O)n2cc(/C=C/C(=O)N(C)C)nc2C)cc1 equals 162 to 163 °C

Memo: CC(=O)Nc1cccc(C(=O)NCc2ccc(-n3c(-c4cccnc4N)nc4ccc(C)nc43)cc2)c1 , reported melting point: 157 to 161 °C

So for C#CCOc1cc(-c2ncc(C(F)(F)F)c(C)c2Cl)c(F)cc1Cl , the logged melting point turned out to be 95 to 98 °C

// recorded melting point for C=CCOc1cccc(-c2cn3ccc4ccccc4c3n2)c1 : 83 to 85 °C

The value of melting point measured for the molecule Cc1nn(C)c2c(Nc3ccc(S(C)(=O)=O)cc3)nc(-c3ccc(F)cc3)nc12 turned out to be 216 to 218 °C

Quick note, melting point for COC(=O)c1ccc2c(c1SCCCl)Cc1ccccc1CO2 landed at 100 °C

Item: N#Cc1cc(O)c(O)c(O)c1 | melting point: 219 °C

Data point: CC(O)(c1cccc(C(F)(F)F)c1)c1cc2cccc(-c3cccc(C(=O)NCCO)c3)c2s1 (stereo not given) ; melting point = 176 to 177 °C

melting point for CCOC(=O)Cc1c[nH]c2cc(-c3ccccc3)nn2c1=O is 245 to 250 °C

melting point reported for this molecule COC(=O)c1cc(-c2ccc(C)cc2)n(-c2ccc(S(N)(=O)=O)cc2)n1 : 138 to 139 °C

Form field melting point, entry Nc1ccc2ccccc2c1-c1c(P(=O)(c2ccccc2)c2ccccc2)ccc2ccccc12 : 133 °C

Lab book: melting point of N#Cc1cccc(CN2CCc3ccccc32)c1 noted as 54.5 to 56 °C

// recorded melting point for O=C(COc1ccc(Cl)cc1Cc1cc(Cl)ccc1O)OCc1ccccc1 : 135 to 137 °C

Input O=C(O)Cc1c(C(=O)c2ccc(Cl)cn2)[nH]c2ccc(Cl)cc12 . Output melting point: 259 to 260 °C

Please fill in: melting point reported for COc1ccc(C2OC2C(N)=O)cc1 (stereo not given) = 142 to 144 °C

According to the records, this molecule CC(=O)Nc1ccccc1N1CCc2cc(Cl)ccc21 displays melting point of 136 to 138 °C

Per the records, this molecule ( CN(CCCN)CCCNc1ccc2ncn3c4ccccc4c(=O)c1c23 ) has melting point equal to 97 to 99 °C

// field: melting point; key: CC(C)(CO)NCc1ccccc1 ; value = 46 to 47 °C

melting point recorded for this molecule, COC(=O)C(Cc1ccccc1)N1CC(N2C(=O)c3ccccc3C2=O)C1=O (stereo not given) , is 153 to 156 °C

Sample CCN(c1ccc(Cl)cc1C(=O)O)S(=O)(=O)c1ccc(C)cc1 ; melting point observed: 163 to 165 °C

melting point reading for Cc1ccc(S(=O)(=O)N2[C@H](CCCNS(C)(=O)=O)CC[C@@H]2c2ccc(F)cc2)cc1 (racemic) : 123 °C

----------
I'd be grateful if you could share measured melting point for these entries.

O=C(COc1ccc(C(=O)CN2CCN(c3ccncc3)CC2)cc1)NCc1ccccc1 has a reported melting point of 150 to 151 °C

// melting point value for Nc1nc2c(ncn2CCC(COCc2ccccc2)COCc2ccccc2)c(=O)[nH]1 : 210 to 224 °C

COC(=O)C(NC(=O)c1ccccc1)c1ccc(-c2ccc(S(=O)(=O)O)cc2)cc1 (centres undefined) yielded melting point of > 250 °C

Memo: CCOC(=O)Cc1csc(NC(=O)C(CC2CCCC2)c2ccc(NC(=O)c3cccnc3)cc2)n1 (centres undefined) , reported melting point: 195 to 200 °C

----------
measurement_kind: melting point

Measured melting point of CCOC(=O)c1nc(N)sc1-c1nc2ccc(Cl)cn2c1C : 217 to 219 °C

So for CC(=O)NC(C)(C)c1ccc(CN2CCN(c3ccccn3)CC2)cc1 , the logged melting point turned out to be 129 to 130 °C

Form field melting point, entry O=C(O)c1cc(-c2ccc(Cl)cc2)nn1Cc1ccc(Cl)cc1Cl : 218 °C

In plain terms, O=C(N[C@H]1CC[C@H](CCN2CCC(c3cccc4c3CCO4)CC2)CC1)C1CCC1 has a documented melting point of 197 °C

Cc1cccc(OC2=NS(=O)(=O)N=C(N)N2C(C)C)c1 has a reported melting point of 56 to 58 °C

----------
measurement_kind: melting point

Summary for this compound, CCOP(=O)(OCC)N1CCN(c2cc3c(cc2F)c(=O)c(C(=O)O)cn3C2CC2)CC1 : melting point is 192 to 193 °C

Entry O=C(CCCN1CCN(c2cc3ccccc3cn2)CC1)c1ccc(F)cc1 , melting point reported as 148 to 150 °C

The measured melting point associated with CCCn1c(=O)c(C=C(C#N)C#N)c2n(c1=O)CCS2 reads 135 to 137 °C

The reported melting point of the compound CC(=O)OCc1nc2cc(Cl)c(C)cc2c(=O)n1C was 110 to 112 °C

Measured melting point, CCCCc1nc(SCCCCCC(=O)O)c(C(=O)O)n1Cc1cc2c(cc1Cl)OCO2 : 128 °C

melting point for Cc1cc(C)nc([NH+]([O-])C(=O)Cc2cccs2)c1 (centres undefined) is 154 to 155 °C

Form: compound = CC(C)(C)OC(=O)[C@@H]1CS[C@H](c2ccccc2)N1C(=O)CNC(=O)Nc1cccc(CCO)c1 ; melting point = 164 °C

melting point recorded for this compound, Cc1cc(Oc2ccc(C(=O)O)cc2)ccc1[N+](=O)[O-] , is 187 to 190 °C

melting point reported for this compound CN(C)C(=O)C(CCN1CCC(Nc2nc3cncnc3n2Cc2ccccn2)CC1)(c1ccccc1)c1ccccc1 : 192 °C

----------
Please provide measured melting point for the entries that follow.

Lab note: CNS(=O)(=O)c1cc2c(c(C(=O)NC3CCN(C4CCCCC4)C3)c1)OCCO2 (configuration not stated) gave melting point of 160 to 161 °C

So, NC(=O)C1=CC=CNC=C1 ? Its melting point was 167 to 171 °C

Just so you know, measured melting point for CC(NNC=NN)C(=O)O (configuration not stated) came out at 239 to 241 °C

Per the record, COc1ccc(C[C@@H](CO)NC(=O)c2ccnc(Br)c2)cc1OC has melting point of 151 to 153 °C

melting point reading for CCCCc1nc(C(C)=O)c(C#N)n1Cc1ccc(-c2ccccc2C(=O)O)cc1 : > 55 °C

Sure, the documented melting point for CSc1nc(Cl)nc2sc(C)cc12 is 111 to 112 °C

Notebook: COCCCS(=O)(=O)NC(=O)CCc1cc(OCC2CC2)nn1Cc1ccc(C(F)(F)F)cc1Cl , melting point read as 152 to 154 °C

Reported melting point ( CC(=O)N1c2ccccc2CC1C(N)=NO (configuration not stated) ) = 204 to 205 °C

melting point recorded for this compound, CCC(=O)NCC=C1CCc2ccc3nc(CCCCc4ccccc4)oc3c21 , is 111 to 113 °C

The recorded melting point for entry N#Cc1cc(Oc2ccc(Cl)cc2)ccc1[N+](=O)[O-] equals 120 to 122 °C

CCOC(=O)c1ncc2[nH]c3cccc(COC(C)=O)c3c2c1COC yielded melting point of 129 to 133 °C

Looking up COc1ccc(OC)c(-c2cc(F)cc3c2OC(CN)C3)c1 (configuration not stated) , I see its melting point listed as 120 to 122 °C

So for S=C(Nc1ccccc1)Nc1ncccc1OCc1c(Cl)cccc1Cl , the logged melting point turned out to be 148 to 149 °C

The value of melting point measured for the compound CCCCc1cc2c3n(ccc-2n1)CC(C)=N3 turned out to be 162 °C

Entry Cc1cc(-c2nncc3c(C(C)(C)C)c(OCc4cccnc4)nn23)no1 ; melting point = 139 to 141 °C

Kindly note the recorded melting point for COC(=O)C(=O)c1ccc(OCc2ccc3ccccc3c2)cc1 , which is 101 to 102 °C

Noted for CCCc1c(OCCCOc2ccc3c(c2CCC)OC(CCC(=O)O)C=C3)ccc(C(C)=O)c1O (configuration not stated) : its melting point reads 60 to 62 °C

For record NC(=O)c1ncn2c1[C@@H]1CCN1C(=O)c1c(Br)cccc1-2 the listed melting point is 314 to 317 °C

Record CCCN(CCC)C1CCc2cccc(-c3ccc4ccccc4n3)c2C1 (configuration not stated) . Reported melting point: 82 °C

Lookup result for COc1ncc(Cl)cc1C1OC(=O)NC1=O (configuration not stated) ; measured melting point: 199 to 204 °C

Reported melting point for Cn1cc(-c2cccc(C(=O)O)c2)c(=O)c(-n2cccn2)c1 was 280 °C

Documented melting point of CCOC(=O)c1cc2cc(-c3ccccc3)ccc2nn1 : 160 to 162 °C

The reported measurements were obtained from a melting point compilation (Tetko et al.; mined from patent text by program, amines drawn as free bases though some values may be those of a salt).
